From: ChEMBL document CHEMBL1125980

- ASSAY TARGET: UniProt P21731
- Sequence (P21731 whole entry): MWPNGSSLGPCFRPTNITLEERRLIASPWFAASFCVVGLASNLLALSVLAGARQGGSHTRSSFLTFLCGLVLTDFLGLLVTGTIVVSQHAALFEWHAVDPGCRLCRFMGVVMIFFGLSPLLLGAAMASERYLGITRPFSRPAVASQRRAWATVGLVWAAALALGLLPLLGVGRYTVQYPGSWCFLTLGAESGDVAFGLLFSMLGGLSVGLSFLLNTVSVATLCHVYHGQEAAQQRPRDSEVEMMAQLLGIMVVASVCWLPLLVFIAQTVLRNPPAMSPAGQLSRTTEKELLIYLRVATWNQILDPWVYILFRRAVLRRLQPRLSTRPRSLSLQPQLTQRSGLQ
- PROTOCOL DETAILS: Tested for binding affinity against platelet TXA2 receptor in washed human platelets using [125I]BOP as radioligand
OBSERVABLE: Kd (µM)

(I) O=C(O)CCC/C=C\C[C@H]1CCC[C@@H]1NS(=O)(=O)c1ccccc1
(II) O=C(O)CCC/C=C\CC1C2CCC(C2)C1NS(=O)(=O)c1ccccc1 (stereo not given)
Data request: // pick larger Kd from pair: I vs II Give the label of your selection.
Data returned: I

---

- ASSAY TARGET: Thromboxane A2 receptor (Homo sapiens, UniProt P21731)
- PROTOCOL DETAILS: Tested for binding affinity against platelet TXA2 receptor in washed human platelets using [125I]BOP as radioligand
pKd: −log10 of the molar value.
OBSERVABLE: pKd

(A) O=C(O)CCC/C=C/CCCNS(=O)(=O)c1ccccc1
(B) O=C(O)CCC/C=C\C[C@H]1CCC[C@H]1NS(=O)(=O)c1ccccc1
(C) O=C(O)CCCCCCCCNS(=O)(=O)c1ccccc1
Data request: Order the items by recorded pKd; the first position goes to the largest value. Answer format: list of labels, ordered as asked.
Data returned: B, A, C
(B: 7.44, A: 7.17, C: 6.76)
